Assay: Volume of distribution at steady state in cynomolgus monkey at 10 mg/kg, po and 1 mg/kg, iv
Assay type: ADME, organism-based, Macaca fascicularis
Settings: in vivo, read-out: Vdss
value.kind: Vd (L/kg)
One number for each entry, in L/kg.

So, Cc1ccccc1N1CC(C)(C)N([C@H]2CNC[C@@H](C(=O)N[C@H](CC(C)C)c3ccc(F)cn3)C2)CC1=O.O=C(O)/C=C/C(=O)O ? Its Vd was 5.4

###

For each of the molecules below, state its pIC50.
Target: Renin (Homo sapiens)
Sequence (P00797 whole entry): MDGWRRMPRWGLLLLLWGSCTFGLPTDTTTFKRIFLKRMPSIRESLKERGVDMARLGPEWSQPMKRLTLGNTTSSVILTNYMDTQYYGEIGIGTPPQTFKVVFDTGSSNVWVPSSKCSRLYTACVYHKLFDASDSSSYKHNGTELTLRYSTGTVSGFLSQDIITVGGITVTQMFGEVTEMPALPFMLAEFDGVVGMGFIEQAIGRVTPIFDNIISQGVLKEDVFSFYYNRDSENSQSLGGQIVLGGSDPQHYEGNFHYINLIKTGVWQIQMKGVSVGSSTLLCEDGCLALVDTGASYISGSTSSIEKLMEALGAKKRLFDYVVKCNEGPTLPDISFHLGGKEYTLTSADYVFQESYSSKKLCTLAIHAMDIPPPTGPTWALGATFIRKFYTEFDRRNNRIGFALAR
Experiment: Inhibition of trypsin-activated human recombinant renin using (Arg-Glu(EDANS)-Ile-His-Pro-Phe-His-Leu-Val-Ile-His-Thr-Lys(DABCYL)-Arg) as substrate incubated for 10 mins prior to substrate addition measured after 90 mins by fluorescence assay
Give bare numbers, as −log10 of the molar value.

So, CC(C)C[C@@H](NC(=O)[C@@H]1CNC[C@H](N2CC(=O)N(c3ccccc3Cl)CC2(C)C)C1)c1ccc(F)cn1.O=C(O)/C=C/C(=O)O ? Its pIC50 was 9.00

So, CC[C@@H](NC(=O)[C@@H]1CNC[C@H](N2CC(=O)N(c3ccccc3Cl)CC2(C)C)C1)c1ccc(F)cc1 ? Its pIC50 was 8.62

Required: pIC50, one value per molecule below.
1. CC(C)C[C@@H](NC(=O)[C@@H]1CNC[C@H](N2CC(=O)N(c3ccccc3Cl)CC2(C)C)C1)c1ncco1
2. CC(C)C[C@@H](NC(=O)[C@@H]1CNC[C@H](N2CC(=O)N(c3ccccc3Cl)CC2(C)C)C1)c1cncc(F)c1
3. Cc1ccccc1N1CC(C)(C)N([C@H]2CNC[C@@H](C(=O)N[C@H](CC(C)C)c3ccc(F)cn3)C2)CC1=O.O=C(O)/C=C/C(=O)O
4. CC(C)C[C@@H](NC(=O)[C@@H]1CNC[C@H](N2CC(=O)N(c3ccccc3Cl)CC2(C)C)C1)c1ccccn1
5. CC[C@@H](NC(=O)[C@@H]1CNC[C@H](N2CC(=O)N(c3ccccc3Cl)CC2(C)C)C1)c1ccc(Cl)cc1

# output
8.72
8.77
8.80
8.85
8.28

###

Experiment: Metabolic stability in human liver microsomes assessed as compound remaining after 30 mins
Assay type: ADME, Microsome
Conditions: read-out: Stability
value.kind: remaining at 0.5 h (%)
Give bare numbers, in %.

So, Cc1ccccc1N1CC(C)(C)N([C@H]2CNC[C@@H](C(=O)N[C@H](CC(C)C)c3ccc(F)cn3)C2)CC1=O.O=C(O)/C=C/C(=O)O ? Its remaining at 0.5 h was 100

###

Test: Half life in cynomolgus monkey at 10 mg/kg, po and 1 mg/kg, iv
Type: ADME, organism-based, Macaca fascicularis
Conditions: in vivo
value.kind: half-life (h)
Answers are plain numbers, in h.

So, Cc1ccccc1N1CC(C)(C)N([C@H]2CNC[C@@H](C(=O)N[C@H](CC(C)C)c3ccc(F)cn3)C2)CC1=O.O=C(O)/C=C/C(=O)O ? Its half-life was 7.9

###

Experiment: Cmax in cynomolgus monkey at 10 mg/kg, po and 1 mg/kg, iv
Format: ADME, organism-based, Macaca fascicularis
Details: in vivo
value.kind: Cmax (ng/mL)
One number for each entry, in ng/mL.

So, Cc1ccccc1N1CC(C)(C)N([C@H]2CNC[C@@H](C(=O)N[C@H](CC(C)C)c3ccc(F)cn3)C2)CC1=O.O=C(O)/C=C/C(=O)O ? Its Cmax was 604

###

Target: CYP2D6 (Homo sapiens, UniProt P10635)
Sequence (P10635 whole entry): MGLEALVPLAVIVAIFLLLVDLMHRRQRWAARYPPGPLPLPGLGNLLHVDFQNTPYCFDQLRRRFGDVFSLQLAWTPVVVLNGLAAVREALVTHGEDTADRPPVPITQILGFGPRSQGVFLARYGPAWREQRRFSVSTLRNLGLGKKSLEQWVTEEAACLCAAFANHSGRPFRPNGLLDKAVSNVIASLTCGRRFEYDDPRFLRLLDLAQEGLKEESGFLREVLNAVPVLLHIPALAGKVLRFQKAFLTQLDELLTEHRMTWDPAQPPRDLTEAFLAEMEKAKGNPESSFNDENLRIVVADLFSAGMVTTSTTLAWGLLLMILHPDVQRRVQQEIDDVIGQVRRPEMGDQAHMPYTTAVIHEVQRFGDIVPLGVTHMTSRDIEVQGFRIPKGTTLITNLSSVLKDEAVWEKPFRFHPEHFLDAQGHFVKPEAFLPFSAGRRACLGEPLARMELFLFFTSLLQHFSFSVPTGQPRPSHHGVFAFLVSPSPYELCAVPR
Assay: Inhibition of CYP2D6 (unknown origin) at 10 uM
Assay type: ADME
value.kind: inhibition at 10 µM (%)
Answers are plain numbers, in %.

So, CC(C)C[C@@H](NC(=O)[C@@H]1CNC[C@H](N2CC(=O)N(c3ccccc3Cl)CC2(C)C)C1)c1ccc(F)cn1.O=C(O)/C=C/C(=O)O ? Its inhibition at 10 µM was 8.3

So, Cc1ccccc1N1CC(C)(C)N([C@H]2CNC[C@@H](C(=O)N[C@H](CC(C)C)c3ccc(F)cn3)C2)CC1=O.O=C(O)/C=C/C(=O)O ? Its inhibition at 10 µM was 1

Next:
So, Cc1ccc(F)cc1N1CC(C)(C)N([C@H]2CNC[C@@H](C(=O)N[C@H](CC(C)C)c3ccc(F)cn3)C2)CC1=O ? Its inhibition at 10 µM was 11
